- Assay Protocol: clinical
- Condition Notes: human, in vivo, iv, 60 g/24 h
Assay Endpoint: half-life (h)
// note: answer is a bare numeric in h

half-life measured on O=C(O)Cc1ccccc1 [PAA, phenylacetic acid] = 4.09

* * *

- Assay Protocol: clinical
- Condition Notes: human, in vivo, iv, 30 g/24 h
Assay Endpoint: half-life (min)
// note: answer is a bare numeric in min

half-life measured on O=C(O)Cc1ccccc1 = 75

* * *

- Assay Protocol: clinical
- Condition Notes: human, in vivo, iv, 3 g/4 h
Assay Endpoint: half-life
Field: value (include unit after the number)

half-life measured on O=C(O)Cc1ccccc1 = 39 min

* * *

- Assay Protocol: clinical
- Condition Notes: human, in vivo, iv, 30 g/4 h
Assay Endpoint: half-life (h)
// note: answer is a bare numeric in h

half-life measured on O=C(O)Cc1ccccc1 [PAA, phenylacetic acid] = 5.99
